# tested on: T1, glucose-dependent insulinotropic peptide (gastric inhibitory polypeptide) receptor (human, UniProt P48546 22-466)
# T1 sequence (looked up): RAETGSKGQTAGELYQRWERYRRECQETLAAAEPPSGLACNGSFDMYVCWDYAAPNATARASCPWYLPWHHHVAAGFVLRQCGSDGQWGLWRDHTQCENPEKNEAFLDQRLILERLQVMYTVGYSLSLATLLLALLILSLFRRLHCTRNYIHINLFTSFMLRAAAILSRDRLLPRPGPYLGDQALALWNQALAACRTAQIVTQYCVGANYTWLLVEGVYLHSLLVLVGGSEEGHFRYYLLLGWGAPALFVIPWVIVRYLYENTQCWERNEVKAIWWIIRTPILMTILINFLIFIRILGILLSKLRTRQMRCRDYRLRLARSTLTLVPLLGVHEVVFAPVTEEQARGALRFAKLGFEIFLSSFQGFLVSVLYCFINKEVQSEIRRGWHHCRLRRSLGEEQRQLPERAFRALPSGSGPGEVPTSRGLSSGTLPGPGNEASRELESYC
# assay notes: cell-based or functional assay
Starred links: 1 amine or outer side, 2 acyl side, 3 side chain; linkers in the order of their positions; H or OH if unused. Non-standard residues stand in square brackets, D forms with d. Groups on a side chain read outwards from the residue. Primed or numbered codes have the meaning given here. No end group written: not given here. *: point of attachment. γGlu = O=C(O)[C@H](CCC(=O)[*:2])N[*:1]; Stearoyl = CCCCCCCCCCCCCCCCCC(=O)*; αMeF = C[C@](N)(Cc1ccccc1)C(=O)O; αMeK = C[C@](N)(CCCCN)C(=O)O; αMeS = C[C@](N)(CO)C(=O)O; PEG2′ = not defined here; Aib = CC(C)(N)C(=O)O
test readout: Primary assay EC50 (cAMP), n2 (nM)

{"columns": ["binder", "Primary assay EC50 (cAMP), n2 (nM)"],
 "data": [
  ["H[Aib]EGS[αMeF]TSDV[αMeS]S[αMeF]LEGEAAK([PEG2′-PEG2′-γGlu-Stearoyl])E[αMeF]IA[αMeF]VVKGG-NH2 [SEQ ID NO 50]", 26],
  ["H[Aib]EGS[αMeF]TSDV[αMeS]S[αMeF]LEGEAAK([PEG2′-PEG2′-γGlu-Stearoyl])E[αMeF]IA[αMeF]VV[αMeK]GG-NH2 [SEQ ID NO 33]", 25],
  ["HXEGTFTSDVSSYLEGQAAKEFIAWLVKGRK (Aib 2; K(ε-(PEG)2-(PEG)2-γE-Stearate) after R30; C-terminal amide) [SEQ ID NO 6]", 22]
]}

[I] H[Aib]EGS[αMeF]TSDV[αMeS]S[αMeF]LEGEAA[αMeK]EFIK([PEG2′-PEG2′-γGlu-Stearoyl])WVVEGG-NH2 [SEQ ID NO 68]
[II] HXEGTFTSDVXSYLEGQAAKEFIAWLVKGR (Aib 2; Aib 11; C-terminal amide) [SEQ ID NO 22]
Exercise: Look at I and II . Which one has the lower recorded Primary assay EC50 (cAMP), n2 number? Record your answer as the label of the chosen record.
Solution: I
(I: 25 nM, II: 480 nM)

Sourced from patent US20200079833A1
